# target_under_test: human cloned dopamine D3 receptors (Homo sapiens, UniProt P35462)
# Construct: expressed in transfected cells; host or cells: CHO cells
# Sequence (P35462 whole entry): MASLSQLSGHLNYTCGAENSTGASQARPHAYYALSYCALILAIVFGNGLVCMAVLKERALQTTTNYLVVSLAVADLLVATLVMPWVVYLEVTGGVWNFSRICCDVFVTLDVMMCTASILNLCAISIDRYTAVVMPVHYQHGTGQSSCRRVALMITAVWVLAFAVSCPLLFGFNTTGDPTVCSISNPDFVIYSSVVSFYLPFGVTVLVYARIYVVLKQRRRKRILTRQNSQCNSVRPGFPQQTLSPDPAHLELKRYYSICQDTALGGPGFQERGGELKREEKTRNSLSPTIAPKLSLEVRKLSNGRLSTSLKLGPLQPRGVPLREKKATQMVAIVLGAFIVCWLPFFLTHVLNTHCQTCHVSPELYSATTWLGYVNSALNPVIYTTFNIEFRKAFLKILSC
# test_protocol: Inhibition of the binding of [3H]-Spiperone to human D3 receptors
# assay_conditions: test compound at 50 nM; [3H]Spiperone 0.3 nM; read-out: D3-bind. % inhibition of binding at 50 nM
I'd appreciate it if you could supply inhibition at 0.05 µM values for the items below.
Give the figure together with its unit, number first.

>>> measured_result("CCN(CC)c1cccc(Oc2cccc(N3CCN(CCCc4c[nH]c5ccccc45)CC3)c2C)c1")
"70%"
>>> measured_result("CCN(CC)c1cccc(Oc2cccc(N3CCN(CCCc4c[nH]c5c(F)cc(F)cc45)CC3)c2C)c1")
"70%"
>>> measured_result("Cc1c(Oc2ccc3c(c2)OCO3)cccc1N1CCN(CCCc2c[nH]c3ccc(F)cc23)CC1")
"61%"

I'm hoping you can list inhibition at 0.05 µM for every compound here, please.
1. Cc1c(Oc2ccc3c(c2)OCO3)cccc1N1CCN(CCCc2c[nH]c3ccccc23)CC1
2. Cc1c(N2CCN(CCCc3c[nH]c4ccc(F)cc34)CC2)cccc1N1CCC[C@H]1CO
3. Cc1c(Oc2cccc(N(C)C)c2)cccc1N1CCN(CCCc2c[nH]c3c(F)cc(F)cc23)CC1
4. CCN(CC)c1cccc(Oc2cccc(N3CCCN(CCCc4c[nH]c5c(F)cc(F)cc45)CC3)c2C)c1
5. Cc1c(N2CCCN(CCCc3c[nH]c4ccc(F)cc34)CC2)cccc1N1CC(C)OC(C)C1 (stereo not shown)

// result
["54%", "54%", "59%", "66%", "65%"]

Count: 2. Required value per item: inhibition at 0.05 µM.
1. CCN(CC)c1cccc(Oc2cccc(N3CCN(CCCCc4c[nH]c5ccc(F)cc45)CC3)c2C)c1
2. Cc1c(Oc2ccc3c(c2)OCO3)cccc1N1CCN(CCCc2c[nH]c3c(F)cc(F)cc23)CC1

// result
["96%", "54%"]
